tested on: MCF-7 cells; assay: MTT cell viability assay, MCF-7 cells; assay type: cell-based, human; conditions: Homo sapiens, MCF7

- MOLECULE: "CCOC(=O)C1=C(COCc2cn(CCN3C(=O)C(=O)c4ccccc43)nn2)N=C2SC=CN2C1c1cccc(Cl)c1 (stereo not shown) [Compound 14a]"
  TESTED_TARGET: "MCF-7 cells"
  IC50 (µM): 81.9

* * *

test system: MDA-MB-231 cells; test: MTT cell viability assay, MDA-MB-231 cells; type: cell-based, human; details: Homo sapiens, MDA-MB-231
pIC50: −log10 of the molar value.

- COMPOUND: "CCOC(=O)C1=C(COCc2cn(CCN3C(=O)C(=O)c4ccccc43)nn2)N=C2SC=CN2C1c1cccc(Cl)c1 (stereo not shown) [Compound 14a]"
  pIC50: 4.37
